# protocol.text: Plasma level and brain uptake following intraperitoneal and nasal administration
# Assay type: in vivo, male ddY mice
# experimental.setup: male, ddY, mouse, inhaled or intranasal, 1 mg
Peptide text beside a SMILES is read from it.
readout: AUC(0-t) (ng·h/mL)
One number for each entry, in ng·h/mL.

Problem: Output AUC(0-t) of CC[C@H](C)[C@H](NC(=O)[C@H](CCSC)NC(=O)[C@H](CCCNC(=N)N)NC(=O)[C@H](Cc1ccc(O)cc1)NC(=O)[C@H](C)NC(=O)[C@H](CCC(N)=O)NC(=O)CNC(=O)[C@H](CCCCN)NC(=O)[C@@H](N)CO)C(=O)O [ANA‐TA9] (H-SKGQAYRMI-OH)
Result: 27.2
